organism: Rattus norvegicus; test: Selectivity index, ratio of Ki for adenosine receptor A1 in rat brain membrane to Ki for adenosine receptor A2a in rat striatal membrane; format: cell membranes
Readings of Ratio Ki for the listed compounds
Give the value as a plain number.

{"smiles str": "Cn1c(=O)c2c(nc(CSc3ccccc3)n2C)n(C)c1=O", "recorded number": 1.5}
{"smiles str": "Cn1c(=O)c2c(nc(OCc3ccc(Cl)cc3)n2C)n(C)c1=O", "recorded number": 5.3}
{"smiles str": "Cn1c(=O)c2c(nc(OCc3ccccc3)n2C)n(C)c1=O", "recorded number": 0.4}
{"smiles str": "Cn1c(=O)c2c(nc(SCc3ccccc3)n2C)n(C)c1=O", "recorded number": 0.9}
{"smiles str": "Cn1c(=O)c2c(nc(COc3ccc(Cl)cc3)n2C)n(C)c1=O", "recorded number": 5.7}
{"smiles str": "Cn1c(=O)c2c(nc(NCc3ccccc3)n2C)n(C)c1=O", "recorded number": 1.8}
{"smiles str": "Cn1c(=O)c2c(nc(CSc3ccc(Cl)cc3)n2C)n(C)c1=O", "recorded number": 13.9}
{"smiles str": "Cn1c(=O)c2c(nc(CCc3ccccc3)n2C)n(C)c1=O", "recorded number": 1.2}

# input Using the record for Cn1c(=O)c2c(nc(COc3ccccc3)n2C)n(C)c1=O , state its measured Ratio Ki.
# output 1.3

# input Using the record for Cn1c(=O)c2c(nc(SCc3ccc(Cl)cc3)n2C)n(C)c1=O , state its measured Ratio Ki.
# output 1.8
